This collection of values is drawn from the RNAGym collection of RNA variant scans (doi:10.7554/elife.80360).

B1: Twister Ribozyme (parent)
chain: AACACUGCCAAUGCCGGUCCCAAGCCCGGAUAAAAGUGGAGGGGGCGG

Variants of: B1
Assay: self-cleavage, relative activity (ratio to wild type); higher = more cleavage; co-transcriptional
Param threshold (0.1) applies to self-cleavage; output Criterion met when value >= threshold, Criterion not met when value < threshold.

{"mutation": "C20U G45A", "group": "Criterion met"}
{"mutation": "C20G G47A", "group": "Criterion met"}
{"mutation": "C5G G41A", "group": "Criterion met"}

Reported self-cleavage at or above 0.1? G24U C26U
Criterion met

Is the recorded value of self-cleavage equal to or greater than 0.1 for this variant? C9G A30C
Criterion met

Does C8A G44A have a reported self-cleavage of at least 0.1?
Criterion met

State whether the measured self-cleavage reaches 0.1, counting equality as reaching it, for C8A U31G
Criterion met

Say whether A1U G29U shows self-cleavage of 0.1 or more.
Criterion not met

Does U12G A22G have a reported self-cleavage of at least 0.1?
Criterion met

Could you verify whether the entry A22G G45A shows self-cleavage of no less than 0.1?
Criterion met

Could you please find out whether C20A A40G has self-cleavage that meets 0.1 or exceeds it?
Criterion not met

Given the entry A22G G29U , answer whether its self-cleavage meets or surpasses 0.1.
Criterion met

Test whether the variant G17A C25G records self-cleavage of 0.1 or higher.
Criterion not met

Determine whether measured self-cleavage meets or exceeds 0.1 for C3A A33C
Criterion met

Item C5U C15U with self-cleavage of 0.1 or above?
Criterion met
